tested on: A498 renal; assay: NCI tumour cell line growth inhibition, 48 h
test-readout: TGI (µM)

compound | test-readout | unit-tag | result-modifier | quantitative-readout
Oc1c(CN2CCOCC2)ccc2cccnc12 | TGI | µM | > | 10
COc1cc2ncnc(Nc3ccc(C)c(O)c3)c2cc1OC | TGI | µM | = | 18
CC(C)(C)c1cc(Br)c(O)c(CN(Cc2cc(C(C)(C)C)cc(Br)c2O)C2CCCCC2)c1 | TGI | µM | = | 26.3
O=C(O)C1OC(n2cc(F)c(=O)[nH]c2=O)CC1O (configuration not stated) | TGI | µM | > | 100
O=C(c1ccc(N=Cc2ccccc2O)cc1)c1ccc(N=Cc2ccccc2O)cc1 | TGI | µM | > | 100
CCCCCCCC/C=C/CCCCCCCC(=O)OC[C@H]1O[C@@H](n2ccc(N)nc2=O)C(F)(F)[C@@H]1O | TGI | µM | = | 6.32
Cn1cc(NC(=O)c2cc(NC(=O)CN=C(N)N)cn2C)cc1C(=O)NCCC(=N)N | TGI | µM | > | 100
